B1: TPR t1 (parent)
chain: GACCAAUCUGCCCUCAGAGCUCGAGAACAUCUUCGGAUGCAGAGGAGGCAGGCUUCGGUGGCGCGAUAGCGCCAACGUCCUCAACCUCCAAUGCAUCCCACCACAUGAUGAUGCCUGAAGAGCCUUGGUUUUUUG

Variants of: B1
Assay: polymerase ribozyme fitness, log enrichment relative to wild type (log ratio); higher = more active; in vitro selection for triplet polymerase activity
measured metric: polymerase ribozyme fitness (log ratio)

[[record]]
mutation = "C4G C12U C56A C70U A111C U126A"
number = -3.03

[[record]]
mutation = "C53U G77U U132A"
number = -0.78

[[record]]
mutation = "C22A G63U C101U"
number = -6.16

[[record]]
mutation = "G93A C102U"
number = -2.73

[[record]]
mutation = "C94G U109A"
number = -6.28

[[record]]
mutation = "G19A G77U U81A C114A"
number = -1.67

[[record]]
mutation = "U9A G48C G77A C88U U112A"
number = 0.603

[[record]]
mutation = "C40U G122A U130A"
number = -1.96

[[record]]
mutation = "U87C C99U U129G"
number = -3.62

[[record]]
mutation = "C79A C82U"
number = -0.745

[[record]]
mutation = "C8G U96A"
number = 0.0383

[[record]]
mutation = "G10A C20A U87A C124U"
number = -0.469

[[record]]
mutation = "C73U C79G"
number = -2.02

[[record]]
mutation = "G25A C64G U81A C114A"
number = -5.93

[[record]]
mutation = "C56A C80U A111U"
number = -4

[[record]]
mutation = "U9G G51C G61U G127C"
number = -3.3

[[record]]
mutation = "G42C C114A"
number = -2.26

[[record]]
mutation = "C72G C102A"
number = -2.79

[[record]]
mutation = "G69A U125A"
number = -3.21

[[record]]
mutation = "A26U C72U C123U"
number = -2.2

[[record]]
mutation = "U54A G69U G128C U130A U132A"
number = -2.67

[[record]]
mutation = "C3A C13G C89U G128C"
number = -3.62

[[record]]
mutation = "C12U A27G C40U C56U C86U C102U"
number = -3.62

[[record]]
mutation = "A18G G19U A46C C56A U87A"
number = -2.82

[[record]]
mutation = "A18G G39U"
number = -3.93

[[record]]
mutation = "A6C U9G"
number = -0.665

[[record]]
mutation = "U14C C53G A74C A83G C94U"
number = -2.55

[[record]]
mutation = "G10A A83C G110C U133A"
number = -3.93

[[record]]
mutation = "G57A G61A A90G C124A"
number = 0.849

[[record]]
mutation = "U32C G117U"
number = -2.41

[[record]]
mutation = "C28G G61A G113C"
number = -5.25

[[record]]
mutation = "C8G U32C A66U"
number = -0.651

[[record]]
mutation = "A84U G93A C115G"
number = -2.08

[[record]]
mutation = "G44C C86G"
number = -1.54

[[record]]
mutation = "G52A C70U"
number = -0.605

[[record]]
mutation = "C64U C82U C89A"
number = -1.79

[[record]]
mutation = "G48U G69U"
number = -0.529

[[record]]
mutation = "A2G G45U C82A"
number = -2.5

[[record]]
mutation = "C12U G48A U131A"
number = -0.967

[[record]]
mutation = "U96A C115A"
number = -3.09

[[record]]
mutation = "C49A G69A G77A G122A"
number = -4.61

[[record]]
mutation = "C22G A26G C56G A75G"
number = -5.33

[[record]]
mutation = "A5G U32G A50C C101U G113C C114U U131C"
number = -5.64

[[record]]
mutation = "C8A C79G C85G"
number = -2.78

[[record]]
mutation = "U133G"
number = -0.279

[[record]]
mutation = "A24G A90U"
number = -2.52

[[record]]
mutation = "A6G G113A"
number = -0.703

[[record]]
mutation = "A27U C85A C86A C101G"
number = -5.15

[[record]]
mutation = "C76G C98A"
number = -4.09

[[record]]
mutation = "G36C A100U A111G"
number = -1.04

